This section presents molecules with their documented AUC values.
- experiment_summary: Rat plasma pharmacokinetics after 10-day vehicle/SLE and digoxin or GE
- Format: in vivo, Sprague-Dawley rats
- measurement_conditions: female, Sprague-Dawley, rat, plasma, po, rats, SLE 500 mg/kg ig once a day for 10 days, day 11 digoxin 0.5 mg/kg or GE 120 mg/kg ig
Record the value in ng·h/mL, omitting the unit from your answer.

# molecule, quantitative_result
records = [
    ("CC(C)=CCC[C@](C)(O[C@@H]1O[C@H](CO[C@@H]2O[C@H](CO)[C@@H](O)[C@H](O)[C@H]2O)[C@@H](O)[C@H](O)[C@H]1O)[C@H]1CC[C@]2(C)[C@@H]1[C@H](O)C[C@@H]1[C@@]3(C)CC[C@H](O[C@@H]4O[C@H](CO)[C@@H](O)[C@H](O)[C@H]4O[C@@H]4O[C@H](CO)[C@@H](O)[C@H](O)[C@H]4O)C(C)(C)[C@@H]3CC[C@]12C [Rb1, ginsenoside Rb1]", 25600),
    ("CC(C)=CCC[C@](C)(O[C@@H]1O[C@H](CO[C@@H]2OC[C@H](O)[C@H](O)[C@H]2O)[C@@H](O)[C@H](O)[C@H]1O)[C@H]1CC[C@]2(C)[C@@H]1[C@H](O)C[C@@H]1[C@@]3(C)CC[C@H](O[C@@H]4O[C@H](CO)[C@@H](O)[C@H](O)[C@H]4O[C@@H]4O[C@H](CO)[C@@H](O)[C@H](O)[C@H]4O)C(C)(C)[C@@H]3CC[C@]12C [Rb2, ginsenoside Rb2]", 21300),
    ("CC(C)=CCC[C@](C)(O[C@@H]1O[C@H](CO)[C@@H](O)[C@H](O)[C@H]1O)[C@H]1CC[C@]2(C)[C@@H]1[C@H](O)C[C@@H]1[C@@]3(C)CC[C@H](O[C@@H]4O[C@H](CO)[C@@H](O)[C@H](O)[C@H]4O[C@@H]4O[C@H](CO)[C@@H](O)[C@H](O)[C@H]4O)C(C)(C)[C@@H]3CC[C@]12C [Rd, ginsenoside Rd]", 7640),
]

Lab note: next molecule to report on.
Query (molecule): C[C@H]1O[C@@H](O[C@H]2[C@@H](O)C[C@H](O[C@H]3[C@@H](O)C[C@H](O[C@H]4CC[C@@]5(C)[C@H](CC[C@@H]6[C@@H]5C[C@@H](O)[C@]5(C)[C@@H](C7=CC(=O)OC7)CC[C@]65O)C4)O[C@@H]3C)O[C@@H]2C)C[C@H](O)[C@@H]1O [Digoxin, digoxin, reference compound] ; field requested: AUC
123

----------
- tgt: human MDR1-encoded P-gp (L-MDR1 cells) (Homo sapiens, UniProt P08183)
- Sequence (P08183 whole entry): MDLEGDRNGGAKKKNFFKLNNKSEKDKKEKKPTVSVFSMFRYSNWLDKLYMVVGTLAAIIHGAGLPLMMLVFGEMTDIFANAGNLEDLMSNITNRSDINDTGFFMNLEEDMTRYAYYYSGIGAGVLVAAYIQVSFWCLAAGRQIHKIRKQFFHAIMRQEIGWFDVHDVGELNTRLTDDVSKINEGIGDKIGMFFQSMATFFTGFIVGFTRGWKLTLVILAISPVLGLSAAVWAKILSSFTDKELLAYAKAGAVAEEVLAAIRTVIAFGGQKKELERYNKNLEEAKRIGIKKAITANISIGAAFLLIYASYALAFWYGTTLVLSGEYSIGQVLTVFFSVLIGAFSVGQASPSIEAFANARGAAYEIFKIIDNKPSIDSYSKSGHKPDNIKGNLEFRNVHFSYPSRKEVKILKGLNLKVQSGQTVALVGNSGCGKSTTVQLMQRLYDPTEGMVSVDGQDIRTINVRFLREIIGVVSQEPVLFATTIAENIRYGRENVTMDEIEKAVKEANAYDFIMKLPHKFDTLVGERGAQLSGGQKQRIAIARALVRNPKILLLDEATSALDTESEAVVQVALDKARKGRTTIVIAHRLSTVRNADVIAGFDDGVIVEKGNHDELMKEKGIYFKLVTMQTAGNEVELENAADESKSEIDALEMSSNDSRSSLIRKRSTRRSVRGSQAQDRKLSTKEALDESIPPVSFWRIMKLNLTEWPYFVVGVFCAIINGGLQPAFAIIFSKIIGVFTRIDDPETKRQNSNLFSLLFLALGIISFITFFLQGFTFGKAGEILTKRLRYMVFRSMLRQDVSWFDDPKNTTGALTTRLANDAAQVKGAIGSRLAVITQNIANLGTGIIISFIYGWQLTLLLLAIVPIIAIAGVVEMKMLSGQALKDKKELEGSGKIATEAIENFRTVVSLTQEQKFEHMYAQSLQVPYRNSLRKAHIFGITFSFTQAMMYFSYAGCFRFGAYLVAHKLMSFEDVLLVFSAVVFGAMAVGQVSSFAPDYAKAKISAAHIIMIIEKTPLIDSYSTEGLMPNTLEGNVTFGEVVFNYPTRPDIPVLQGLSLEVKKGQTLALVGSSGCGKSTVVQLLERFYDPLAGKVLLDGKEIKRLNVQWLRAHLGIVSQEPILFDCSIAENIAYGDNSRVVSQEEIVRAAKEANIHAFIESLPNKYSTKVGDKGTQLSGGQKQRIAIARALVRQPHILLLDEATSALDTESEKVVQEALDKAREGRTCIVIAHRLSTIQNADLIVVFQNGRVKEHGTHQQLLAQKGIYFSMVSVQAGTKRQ
- experiment_summary: Transport of digoxin and ginsenosides across L-MDR1 cell monolayers (efflux ratio)
- Assay type: in vitro ADME
- measurement_conditions: summary of transport/uptake in LLC-PK1, L-MDR1 and Caco-2 cells with verapamil

# compound, P-gp substrate classification
records = [
    ("CC(C)=CCC[C@](C)(O)[C@H]1CC[C@]2(C)[C@@H]1[C@H](O)C[C@@H]1[C@@]3(C)CC[C@H](O)C(C)(C)[C@@H]3[C@@H](O[C@@H]3O[C@H](CO)[C@@H](O)[C@H](O)[C@H]3O[C@@H]3O[C@@H](C)[C@H](O)[C@@H](O)[C@H]3O)C[C@]12C [Rg2, ginsenoside Rg2]", "moderate P-gp substrates"),
    ("CC(C)=CCC[C@](C)(O[C@@H]1O[C@H](CO[C@@H]2O[C@H](CO)[C@@H](O)[C@H](O)[C@H]2O)[C@@H](O)[C@H](O)[C@H]1O)[C@H]1CC[C@]2(C)[C@@H]1[C@H](O)C[C@@H]1[C@@]3(C)CC[C@H](O[C@@H]4O[C@H](CO)[C@@H](O)[C@H](O)[C@H]4O[C@@H]4O[C@H](CO)[C@@H](O)[C@H](O)[C@H]4O)C(C)(C)[C@@H]3CC[C@]12C [Rb1, ginsenoside Rb1]", "moderate P-gp substrates"),
    ("CC(C)=CCC[C@](C)(O[C@@H]1O[C@H](CO[C@@H]2OC[C@H](O)[C@H](O)[C@H]2O)[C@@H](O)[C@H](O)[C@H]1O)[C@H]1CC[C@]2(C)[C@@H]1[C@H](O)C[C@@H]1[C@@]3(C)CC[C@H](O[C@@H]4O[C@H](CO)[C@@H](O)[C@H](O)[C@H]4O[C@@H]4O[C@H](CO)[C@@H](O)[C@H](O)[C@H]4O)C(C)(C)[C@@H]3CC[C@]12C [Rb2, ginsenoside Rb2]", "moderate P-gp substrates"),
]

FYI, the data here is from paper PMC4055595.
